Test: in vitro
Settings: rat, gh3-tre-luc cells, AC50 (uM) modified / 1000, Tox21_110001=Tox21_111742; viability, 1 nM T3 present, 24 h
Where a name gives a salt, the structure may show the parent alone.
recordedEndpoint: CC50 at 24 h

Input: Return the recorded CC50 at 24 h value; entry: c1cc2c(c(N3CCNCC3)c1)OCCO2 [Eltoprazine hydrochloride]
Output: > 50 µM

###

Test system: GH3-TRE-Luc cell line
Conditions: read-out: AC50 (uM) modified / 1000; Tox21_110001=Tox21_302363; viability, 1 nM T3 present, 24 h
recordedEndpoint: CC50
Numeric answer plus unit only.

Input: Return the recorded CC50 value; entry: [H]/N=C(\N/C(=N/[H])NCCCCCCNC(=N)NC(=N)Nc1ccc(Cl)cc1)Nc1ccc(Cl)cc1 [Chlorhexidine diacetate]
Output: 5.83 µM

All figures here come from paper PMC6792352.
